Assay: Toxicity in mouse
Format: organism-based
Settings: in vivo
observable: LD50

INSERT INTO measurements (compound, measured_value) VALUES
  ('O=C1CC2(CCCCC2)CN1', '300 mg/kg'),
  ('NCC1(CC(=O)O)CCCCC1 [GABAPENTIN]', '> 8000 mg/kg');
